Tested on: CAKI-1
Assay: NCI tumour cell line growth inhibition, 48 h
Activity calls are given as the source filed them. Cut-off read from the data, not from the text of the source: active = GI50 up to about 1.1 µM and inactive = higher.
Classes used: true (active), false (inactive)

# molecule, answerLabel
data = [
    ("COc1ccc(C2C3CCc4ccccc4C3=NN2S(=O)(=O)c2ccc(/C=C/C(=O)O)cc2)cc1 (centres undefined)", "false"),
    ("N#CC(NNC(=O)c1c(Cl)c(Cl)c(Cl)c(Cl)c1-c1nc2cc(C(=O)c3ccccc3)ccc2[nH]1)c1ccccc1 (centres undefined)", "false"),
    ("CC(C)(C)C(=O)CC1(O)C=C(O)C(O)(CC(=O)C(C)(C)C)O1 (centres undefined)", "false"),
    ("NS(=O)(=O)c1cc(S(N)(=O)=O)c(NC(=O)N(c2ccccc2)c2ccccc2)c(Cl)c1Cl", "false"),
    ("N#Cc1c(-c2ccc(Cl)cc2)cc(-c2ccc(Nc3ccnc4cc(C(F)(F)F)ccc34)cc2)nc1N", "false"),
    ("COc1ccc(/C=c2/[nH]c(=O)/c(=C\\c3ccc(OCc4ccccc4)cn3)[nH]c2=O)cc1", "false"),
    ("CC(=O)NC1C(O)CC(OCCCSCCN)(C(=O)O)OC1C(O)C(O)CO (centres undefined)", "false"),
    ("CC(=O)OC(C)(C)/C=C/C(=O)[C@](C)(O)[C@H]1[C@H](O)C[C@@]2(C)[C@@H]3CC=C4[C@@H](C[C@H](O)[C@H](O)C4(C)C)[C@]3(C)C(=O)C[C@]12C", "true"),
    ("CCC(c1nc2ccccc2c(=O)n1NC(=O)C(C)(C)C)C1(O)CCCCC1 (centres undefined)", "false"),
    ("O=c1ccc2c(Cl)sc(Cl)c2[nH]1", "false"),
    ("S=c1[nH]c(=S)c2nnn(-c3ccccc3)c2[nH]1", "false"),
    ("O=c1onc2c3ccccc3ncn12", "false"),
    ("CCOC(=O)c1cc(C2(O)CCN(Cc3ccccc3)C2=O)c(-c2cc(C)no2)[nH]1 (centres undefined)", "false"),
    ("Oc1nc2c(c(-c3ccc(Br)cc3)n1)COC/C2=C\\c1ccc(Br)cc1", "false"),
    ("CCOC(=O)c1nn2c(nc1=O)sc1ccc3ccccc3c12", "false"),
    ("COc1ccccc1C1C(C(=O)Nc2ccccc2)=C(C)NC(C)=C1C(=O)Nc1ccccc1", "false"),
    ("COc1ccc(CC(N)=O)cc1OC", "false"),
    ("O=C1CCCC1CC(CN1CCOCC1)Sc1nnnn1-c1ccccc1 (centres undefined)", "false"),
    ("CC(C)N(C(=O)C12C3C4C5(C#N)C3C1(C#N)C5C42I)C(C)C (centres undefined)", "false"),
]
